Molecular target: Alpha glucosidase (Homo sapiens, UniProt O43451+P10253+P14410+Q2M2H8)
Assay: Inhibition of alpha-glucosidase (unknown origin) using p-nitrophenyl-alpha-d-glucopyranoside as substrate preincubated for 15 mins followed by substrate addition measured after 30 mins by spectrophotometric analysis
Assay type: protein assay
pIC50: −log10 of the molar value.

| structure-smiles | study-system | pIC50 |
| --- | --- | --- |
| Cc1ccc(-c2cc(-c3ccc(Br)cc3)nc(SCc3ccc(Cl)cc3)n2)cc1 | Alpha glucosidase (Homo sapiens, UniProt O43451+P10253+P14410+Q2M2H8) | 4.42 to 4.72 |
| Clc1cc(Cl)cc(Cn2cc(CSc3nc4cc(Cl)ccc4s3)nn2)c1 | Alpha glucosidase (Homo sapiens, UniProt O43451+P10253+P14410+Q2M2H8) | 4.21 to 4.70 |
| Brc1ccccc1Cn1cc(CSc2nc3ccccc3s2)nn1 | Alpha glucosidase (Homo sapiens, UniProt O43451+P10253+P14410+Q2M2H8) | 4.21 to 4.70 |
| Clc1ccc(Cn2cc(CSc3nc4ccccc4s3)nn2)cc1 | Alpha glucosidase (Homo sapiens, UniProt O43451+P10253+P14410+Q2M2H8) | 4.21 to 4.70 |
| Fc1ccc(Cn2cc(CSc3nc4cc(Cl)ccc4s3)nn2)cc1 | Alpha glucosidase (Homo sapiens, UniProt O43451+P10253+P14410+Q2M2H8) | 4.21 to 4.70 |
| Clc1ccc2sc(SCc3cn(Cc4ccc(Br)cc4)nn3)nc2c1 | Alpha glucosidase (Homo sapiens, UniProt O43451+P10253+P14410+Q2M2H8) | 4.21 to 4.70 |
| Fc1cccc(Cn2cc(CSc3nc4cc(Cl)ccc4s3)nn2)c1 | Alpha glucosidase (Homo sapiens, UniProt O43451+P10253+P14410+Q2M2H8) | 4.21 to 4.70 |
| Clc1ccccc1CSc1nc(-c2ccc(Br)cc2)cc(-c2cccc(Br)c2)n1 | Alpha glucosidase (Homo sapiens, UniProt O43451+P10253+P14410+Q2M2H8) | 4.42 to 4.72 |
| Fc1cccc(Cn2cc(CSc3nc4ccccc4s3)nn2)c1 | Alpha glucosidase (Homo sapiens, UniProt O43451+P10253+P14410+Q2M2H8) | 4.21 to 4.70 |
| Clc1ccc(Cn2cc(CSc3nc4cc(Cl)ccc4s3)nn2)cc1 | Alpha glucosidase (Homo sapiens, UniProt O43451+P10253+P14410+Q2M2H8) | 4.21 to 4.70 |
| CC(C)(C)c1ccc(Cn2cc(CSc3nc4ccccc4s3)nn2)cc1 | Alpha glucosidase (Homo sapiens, UniProt O43451+P10253+P14410+Q2M2H8) | 4.21 to 4.70 |
